target: tau protein (Homo sapiens)
assay_summary: Tau protein aggregation inhibition in tau-BiFC cell model
settings: tau-BiFC cells treated together with Forskolin, 48 hours
Protocol: In order to select new tau protein aggregation-inhibiting materials, tau-BiFC cell models, in which it is easy to observe the formation of tau oligomers in living cells, were used. […] After 48 hours, intracellular nuclei were stained using Hoechst (treatment concentration 2 μg/mL), and BiFC fluorescence intensity was automatically quantified using Operetta (PerkinElmer) to count stained nuclei in each well from the total well plates. […]

[
  {
    "input_smiles": "Cn1cc2c(-c3ccc(NN=C(C#N)C#N)cc3)cccc2n1",
    "reading_unit": "nM",
    "IC50": 1000
  },
  {
    "input_smiles": "COc1cccc2sc(NN=C(C#N)C#N)nc12",
    "reading_unit": "nM",
    "IC50": 500
  },
  {
    "input_smiles": "Cc1ccnc(-c2ccc(NN=C(C#N)C#N)c(F)c2)n1",
    "reading_unit": "nM",
    "IC50": 1340
  },
  {
    "input_smiles": "N#CC(C#N)=NNc1ccc(-c2cncs2)cc1",
    "reading_unit": "nM",
    "IC50": 600
  },
  {
    "input_smiles": "CN(N=C(C#N)C#N)c1ccc(-c2ncccn2)cc1",
    "reading_unit": "nM",
    "IC50": 9500
  },
  {
    "input_smiles": "Cc1ncc(C(=O)Nc2nc3ccc(NN=C(C#N)C#N)cc3s2)cn1",
    "reading_unit": "nM",
    "IC50": 800
  },
  {
    "input_smiles": "N#CC(C#N)=NNc1cnc2[nH]ccc2c1",
    "reading_unit": "nM",
    "IC50": 35
  },
  {
    "input_smiles": "N#CC(C#N)=NNc1ccc(-c2cnc3ccnn3c2)cc1",
    "reading_unit": "nM",
    "IC50": 730
  },
  {
    "input_smiles": "C#Cc1cnc(-c2ccc(NN=C(C#N)C#N)cc2)nc1",
    "reading_unit": "nM",
    "IC50": 100
  },
  {
    "input_smiles": "Cn1ccc2cc(NN=C(C#N)C#N)ccc21",
    "reading_unit": "nM",
    "IC50": 60
  },
  {
    "input_smiles": "COc1cnc(-c2ccc(NN=C(C#N)C#N)cc2)nc1",
    "reading_unit": "nM",
    "IC50": 20
  },
  {
    "input_smiles": "N#CC(C#N)=NNc1ccc(-c2ncccn2)cc1",
    "reading_unit": "nM",
    "IC50": 490
  },
  {
    "input_smiles": "Cc1c[nH]c2ncc(NN=C(C#N)C#N)cc12",
    "reading_unit": "nM",
    "IC50": 430
  },
  {
    "input_smiles": "N#CC(C#N)=NNc1ccc2cn[nH]c2c1",
    "reading_unit": "nM",
    "IC50": 33
  },
  {
    "input_smiles": "Cc1cncc(C(=O)Nc2nc3ccc(NN=C(C#N)C#N)cc3s2)c1",
    "reading_unit": "nM",
    "IC50": 200
  },
  {
    "input_smiles": "Cn1ccc2cc(NN=C(C#N)C#N)cnc21",
    "reading_unit": "nM",
    "IC50": 40
  },
  {
    "input_smiles": "Cc1cnn(-c2ccc(NN=C(C#N)C#N)cc2)c1",
    "reading_unit": "nM",
    "IC50": 53
  },
  {
    "input_smiles": "Cc1cnc(C(=O)Nc2nc3ccc(NN=C(C#N)C#N)cc3s2)cn1",
    "reading_unit": "nM",
    "IC50": 60
  },
  {
    "input_smiles": "COc1cc(-c2ncc(C)cn2)ccc1NN=C(C#N)C#N",
    "reading_unit": "nM",
    "IC50": 7000
  },
  {
    "input_smiles": "Cn1ncc2ccc(NN=C(C#N)C#N)cc21",
    "reading_unit": "nM",
    "IC50": 740
  },
  {
    "input_smiles": "N#CC(C#N)=NNc1ccc(-n2cccn2)cc1",
    "reading_unit": "nM",
    "IC50": 1700
  },
  {
    "input_smiles": "COc1cc(-c2nccc(C)n2)ccc1NN=C(C#N)C#N",
    "reading_unit": "nM",
    "IC50": 3000
  },
  {
    "input_smiles": "N#CC(C#N)=NNc1ccc(-c2ncccn2)cc1F",
    "reading_unit": "nM",
    "IC50": 940
  },
  {
    "input_smiles": "N#CC(C#N)=NNc1ccc(-c2ccc3nccn3c2)cc1",
    "reading_unit": "nM",
    "IC50": 1300
  },
  {
    "input_smiles": "N#CC(C#N)=NNc1ccc(-c2cnc3nccn3c2)cc1",
    "reading_unit": "nM",
    "IC50": 7420
  },
  {
    "input_smiles": "N#CC(C#N)=NNc1ccc(-c2cnc3ccccc3n2)cc1",
    "reading_unit": "nM",
    "IC50": 1400
  },
  {
    "input_smiles": "N#CC(C#N)=NNc1cnc2[nH]cc(Cl)c2c1",
    "reading_unit": "nM",
    "IC50": 300
  },
  {
    "input_smiles": "N#CC(C#N)=NNc1ccc2nc(NC(=O)c3ccccc3O)sc2c1",
    "reading_unit": "nM",
    "IC50": 400
  },
  {
    "input_smiles": "Cc1cncc(-c2nc3ccc(NN=C(C#N)C#N)cc3s2)c1",
    "reading_unit": "nM",
    "IC50": 760
  }
]

----------
Quick reference for AUCall among some compounds
assay_summary: Pharmacokinetics in SD rat (plasma PK parameters)
Assay type: in vivo
settings: SD rat plasma, IV 1 mg/kg
endpoint: AUCall

[
  {
    "compound": "N#CC(C#N)=NNc1ccc(-c2ncc(F)cn2)cc1 [Compound 2]",
    "endpoint": "AUCall",
    "endpoint_result": "7335.6 ± 1794.1 hr, ng/mL"
  },
  {
    "compound": "Cc1cnc(C(=O)Nc2nc3ccc(NN=C(C#N)C#N)cc3s2)cn1 [Compound 93]",
    "endpoint": "AUCall",
    "endpoint_result": "6059.4 ± 548.0 hr, ng/mL"
  },
  {
    "compound": "N#CC(C#N)=NNc1ccc(-c2ncccn2)cc1 [Compound 1]",
    "endpoint": "AUCall",
    "endpoint_result": "7260.0 ± 580.1 hr, ng/mL"
  },
  {
    "compound": "N#CC(C#N)=NNc1ccc(-c2cnc3ccnn3c2)cc1 [Compound 50]",
    "endpoint": "AUCall",
    "endpoint_result": "8149.7 ± 1421.0 hr, ng/mL"
  }
]

----------
Quick reference for log10 of IC50 among some compounds
target: tau protein (Homo sapiens, UniProt P10636)
Sequence (P10636 2-441 isoform P10636-8 limits assumed): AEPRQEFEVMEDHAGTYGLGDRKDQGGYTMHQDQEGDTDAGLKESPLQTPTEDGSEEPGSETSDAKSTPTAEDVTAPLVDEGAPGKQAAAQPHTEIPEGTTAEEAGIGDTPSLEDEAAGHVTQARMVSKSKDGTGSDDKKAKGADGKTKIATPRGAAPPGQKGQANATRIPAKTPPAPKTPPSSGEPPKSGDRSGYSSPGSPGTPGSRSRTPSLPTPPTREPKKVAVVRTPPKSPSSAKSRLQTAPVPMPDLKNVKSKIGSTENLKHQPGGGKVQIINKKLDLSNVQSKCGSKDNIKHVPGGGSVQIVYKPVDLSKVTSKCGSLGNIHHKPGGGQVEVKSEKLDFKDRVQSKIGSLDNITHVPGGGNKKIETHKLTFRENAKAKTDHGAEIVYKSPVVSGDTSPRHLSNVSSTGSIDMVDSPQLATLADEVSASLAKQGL
assay_summary: Tau protein aggregation inhibition in tau-BiFC cell model
settings: tau-BiFC cells treated together with Forskolin, 48 hours
endpoint: log10 of IC50 (log10 of the value in nM)

[
  {
    "compound": "Cc1ncsc1-c1ccc(NN=C(C#N)C#N)cc1 [Compound 12]",
    "target": "tau protein (Homo sapiens, UniProt P10636)",
    "log10 of IC50": 1.48
  },
  {
    "compound": "COc1c(NN=C(C#N)C#N)cnc2[nH]ccc12 [Compound 84]",
    "target": "tau protein (Homo sapiens, UniProt P10636)",
    "log10 of IC50": 3.20
  },
  {
    "compound": "N#CC(C#N)=NNc1ccc2[nH]ncc2c1 [Compound 69]",
    "target": "tau protein (Homo sapiens, UniProt P10636)",
    "log10 of IC50": 2.28
  },
  {
    "compound": "CN(C)c1ccc(-c2ccc(NN=C(C#N)C#N)cc2)cc1 [Compound 151]",
    "target": "tau protein (Homo sapiens, UniProt P10636)",
    "log10 of IC50": 2.81
  },
  {
    "compound": "N#CC(C#N)=NNc1ccc(-c2ccccn2)cc1 [Compound 10]",
    "target": "tau protein (Homo sapiens, UniProt P10636)",
    "log10 of IC50": 2.72
  },
  {
    "compound": "Cc1cnc(-c2ccc(NN=C(C#N)C#N)cc2)nc1 [Compound 4]",
    "target": "tau protein (Homo sapiens, UniProt P10636)",
    "log10 of IC50": 2.81
  },
  {
    "compound": "Cc1ncc(-c2ccc(NN=C(C#N)C#N)cc2)s1 [Compound 11]",
    "target": "tau protein (Homo sapiens, UniProt P10636)",
    "log10 of IC50": 1.70
  },
  {
    "compound": "N#CC(C#N)=NNc1ccc2[nH]ccc2c1 [Compound 71]",
    "target": "tau protein (Homo sapiens, UniProt P10636)",
    "log10 of IC50": 2.93
  },
  {
    "compound": "Cn1ncc2cc(NN=C(C#N)C#N)ccc21 [Compound 66]",
    "target": "tau protein (Homo sapiens, UniProt P10636)",
    "log10 of IC50": 1.08
  },
  {
    "compound": "N#CC(C#N)=NNc1ccc(-c2ccc3[nH]ccc3c2)cc1 [Compound 58]",
    "target": "tau protein (Homo sapiens, UniProt P10636)",
    "log10 of IC50": 3.08
  }
]
